ASSAY COMMENT: AUC (0 to 24 hrs) in nude rat xenografted with human Calu6 cells harboring KRAS Q61K mutant at 150 mg/kg, po administered daily for 18 days starting from day 13 post tumor implantation and measured on day 31
Type: ADME, organism-based
Parameters: dose 150 mg/kg, time < 24 hr, route oral
CONDITION: in vivo
READOUT: AUC at 24 h

# input Fill in reported AUC at 24 h for this entry: "Cc1ccc(NC(=O)c2ccnc(C(F)(F)F)c2)cc1-c1cc(OCCO)nc(N2CCOCC2)c1"
# output 217 µM·h

====

ASSAY COMMENT: Stability of the compound in human plasma assessed as parent compound remaining measured after 3 hrs
Type: ADME, cell-free
CONDITION: read-out: Stability
READOUT: remaining at 3 h

# input Fill in reported remaining at 3 h for this entry: "Cc1ccc(NC(=O)c2ccnc(C(F)(F)F)c2)cc1-c1cc(OCCO)nc(N2CCOCC2)c1"
# output > 90%

====

ASSAY COMMENT: Clearance in dog at 0.2 mg/kg, iv or 0.4 mg/kg, po
Format: ADME, organism-based, Canis lupus familiaris
CONDITION: in vivo
READOUT: clearance (mL/min/kg)
Answer in mL/min/kg, number only, no unit symbol.

# input Fill in reported clearance for this entry: "Cc1ccc(NC(=O)c2ccnc(C(F)(F)F)c2)cc1-c1cc(OCCO)nc(N2CCOCC2)c1"
# output 3.5

====

ASSAY COMMENT: Oral bioavailability in dog at 0.4 mg/kg
Type: ADME, organism-based, Canis lupus familiaris
CONDITION: in vivo
READOUT: bioavailability (%)
Answer in %, number only, no unit symbol.

# input Fill in reported bioavailability for this entry: "Cc1ccc(NC(=O)c2ccnc(C(F)(F)F)c2)cc1-c1cc(OCCO)nc(N2CCOCC2)c1"
# output 79

====

ASSAY COMMENT: Cmax in nude rat xenografted with human Calu6 cells harboring KRAS Q61K mutant at 75 mg/kg, po administered daily for 18 days starting from day 13 post tumor implantation and measured on day 31
Format: ADME, organism-based
Set-up: dose 75 mg/kg, route oral
CONDITION: in vivo
READOUT: Cmax (µM)
Answer in µM, number only, no unit symbol.

# input Fill in reported Cmax for this entry: Cc1ccc(NC(=O)c2ccnc(C(F)(F)F)c2)cc1-c1cc(OCCO)nc(N2CCOCC2)c1 [NAPORAFENIB]
# output 8.68

====

ASSAY COMMENT: Solubility of compound in pH 6.8 Cl-free PBS buffer by shake-flask assay
Format: physicochemical
READOUT: solubility thermodynamic (µM)
Answer in µM, number only, no unit symbol.

Check out these entries, answers already filled in.
STRUCTURE NOTATION | VAL
Cc1ncc(NC(=O)c2cccc(C(F)(F)F)c2)cc1-c1c[nH]c(=O)c(N2CCOCC2)c1 | 55
Cc1ccc(NC(=O)c2cccc(C(F)(F)F)c2)cc1-c1cc(N2CCOCC2)nc(NCCO)n1 | 2.1
Cc1ccc(NC(=O)c2ccnc(C(F)(F)F)c2)cc1-c1cc(NCCO)nc(N2CCOCC2)c1 | 36.3
Cc1ncc(NC(=O)c2cccc(C(F)(F)F)c2)cc1-c1cnc(O[C@H]2CCOC[C@H]2F)c(N2CCOCC2)c1 | 25
Cc1ncc(NC(=O)c2cccc(C(F)(F)F)c2)cc1-c1cc(N2CCOCC2)c(OC2CCOCC2)nn1 | 59.6
CO[C@H]1COCC[C@@H]1Oc1ncc(-c2cc(NC(=O)c3cccc(C(F)(F)F)c3)cnc2C)cc1N1CCOCC1 | 43
Cc1ccc(NC(=O)c2ccnc(C(F)(F)F)c2)cc1-c1cc(OCCO)nc(N2CCOCC2)c1 | 20
Cc1ccc(NC(=O)c2ccnc(C(C)(C)C#N)c2)cc1-c1cc(N2CCOCC2)c(=O)n(C)n1 | 33.9

# input Fill in reported solubility thermodynamic for this entry: "Cc1ccc(NC(=O)c2cccc(C(F)(F)F)c2)cc1-c1cc(N2CCOCC2)ncn1"
# output 13

# input Fill in reported solubility thermodynamic for this entry: "[2H]C1(Oc2ncc(-c3cc(NC(=O)c4cccc(C(F)(F)F)c4)cnc3C)cc2N2CCOCC2)CCOCC1"
# output 104

# input Fill in reported solubility thermodynamic for this entry: "Cc1ncc(NC(=O)c2ccnc(C(C)(F)F)c2)cc1-c1cc(NCCO)nc(N2CCOCC2)c1"
# output 730

====

ASSAY COMMENT: AUC (infinity) in dog at 0.4 mg/kg, po
Format: ADME, organism-based, Canis lupus familiaris
Design: dose 0.4 mg/kg, time infinity, route oral
CONDITION: in vivo
READOUT: AUC(0-inf) (µM·h)
Answer in µM·h, number only, no unit symbol.

# input Fill in reported AUC(0-inf) for this entry: Cc1ccc(NC(=O)c2ccnc(C(F)(F)F)c2)cc1-c1cc(OCCO)nc(N2CCOCC2)c1 [NAPORAFENIB]
# output 3.1

====

ASSAY COMMENT: AUC (0 to 24 hrs) in nude rat xenografted with human Calu6 cells harboring KRAS Q61K mutant at 35 mg/kg, po administered daily for 18 days starting from day 13 post tumor implantation and measured on day 31
Assay type: ADME, organism-based
Parameters: dose 35 mg/kg, time < 24 hr, route oral
CONDITION: in vivo
READOUT: AUC at 24 h (µM·h)
Answer in µM·h, number only, no unit symbol.

# input Fill in reported AUC at 24 h for this entry: "Cc1ccc(NC(=O)c2ccnc(C(F)(F)F)c2)cc1-c1cc(OCCO)nc(N2CCOCC2)c1"
# output 25.2

====

ASSAY COMMENT: AUC (infinity) in rat at 4 mg/kg, po
Type: ADME, organism-based
Set-up: dose 4 mg/kg, route oral, time infinity
CONDITION: in vivo
READOUT: AUC(0-inf) (µM·h)
Answer in µM·h, number only, no unit symbol.

# input Fill in reported AUC(0-inf) for this entry: Cc1ccc(NC(=O)c2ccnc(C(F)(F)F)c2)cc1-c1cc(OCCO)nc(N2CCOCC2)c1 [NAPORAFENIB]
# output 1.8

====

Quick reference: IC50 of the listed items.
STUDY TARGET: RAF proto-oncogene serine/threonine-protein kinase (Homo sapiens, UniProt P04049, Y340E/Y341E)
Sequence (P04049 whole entry Y340E/Y341E): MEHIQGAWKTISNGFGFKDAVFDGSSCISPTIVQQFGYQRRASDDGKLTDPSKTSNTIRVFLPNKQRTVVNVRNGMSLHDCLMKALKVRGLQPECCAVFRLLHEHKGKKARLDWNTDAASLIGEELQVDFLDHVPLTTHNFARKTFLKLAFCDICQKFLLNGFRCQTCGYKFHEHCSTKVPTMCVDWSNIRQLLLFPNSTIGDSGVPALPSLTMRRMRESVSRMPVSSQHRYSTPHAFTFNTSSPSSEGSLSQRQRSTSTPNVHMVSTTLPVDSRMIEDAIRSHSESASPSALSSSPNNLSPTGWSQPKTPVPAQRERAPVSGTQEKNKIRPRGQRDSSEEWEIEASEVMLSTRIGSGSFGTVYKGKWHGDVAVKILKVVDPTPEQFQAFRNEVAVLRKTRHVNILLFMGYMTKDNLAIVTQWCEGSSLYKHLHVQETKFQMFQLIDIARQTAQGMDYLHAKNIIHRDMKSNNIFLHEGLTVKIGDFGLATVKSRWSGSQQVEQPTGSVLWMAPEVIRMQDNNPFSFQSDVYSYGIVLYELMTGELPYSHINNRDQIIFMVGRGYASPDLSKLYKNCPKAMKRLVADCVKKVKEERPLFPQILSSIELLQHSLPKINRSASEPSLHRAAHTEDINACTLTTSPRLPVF
ASSAY COMMENT: Inhibition of CRAF Y340E/Y341E mutant (unknown origin) using human MEK1 K97R mutant as substrate pretreated for 30 mins followed by substrate addition measured after 40 mins by alphascreen assay
Answer in nM, number only, no unit symbol.

Check out these entries, answers already filled in.
STRUCTURE NOTATION | MEASURE UNIT | IC50
Cc1ncc(NC(=O)c2ccnc(C(C)(F)F)c2)cc1-c1cc(NCCO)nc(N2CCOCC2)c1 | nM | 0.7
Cc1ccc(NC(=O)c2ccnc(C(F)(F)F)c2)cc1-c1cc(NCCO)nc(N2CCOCC2)c1 | nM | 0.6
Cc1ccc(NC(=O)c2cccc(C(F)(F)F)c2)cc1-c1cc(N2CCOCC2)nc(NCCO)n1 | nM | 0.2

# input Fill in reported IC50 for this entry: "CO[C@H]1COCC[C@@H]1Oc1ncc(-c2cc(NC(=O)c3cccc(C(F)(F)F)c3)cnc2C)cc1N1CCOCC1"
# output 1.7

====

ASSAY COMMENT: Cmax in mouse at 4 mg/kg, po
Format: ADME, organism-based
Parameters: dose 4 mg/kg, route oral
CONDITION: in vivo
READOUT: Cmax (µM)
Answer in µM, number only, no unit symbol.

# input Fill in reported Cmax for this entry: Cc1ccc(NC(=O)c2ccnc(C(F)(F)F)c2)cc1-c1cc(OCCO)nc(N2CCOCC2)c1 [NAPORAFENIB]
# output 1.6

====

ASSAY COMMENT: AUC (infinity) in mouse at 4 mg/kg, po
Assay type: ADME, organism-based
Set-up: dose 4 mg/kg, route oral, time infinity
CONDITION: in vivo
READOUT: AUC(0-inf) (µM·h)
Answer in µM·h, number only, no unit symbol.

# input Fill in reported AUC(0-inf) for this entry: "Cc1ccc(NC(=O)c2ccnc(C(F)(F)F)c2)cc1-c1cc(OCCO)nc(N2CCOCC2)c1"
# output 4.3

====

STUDY TARGET: RAF proto-oncogene serine/threonine-protein kinase (Homo sapiens, UniProt P04049)
Sequence (P04049 whole entry): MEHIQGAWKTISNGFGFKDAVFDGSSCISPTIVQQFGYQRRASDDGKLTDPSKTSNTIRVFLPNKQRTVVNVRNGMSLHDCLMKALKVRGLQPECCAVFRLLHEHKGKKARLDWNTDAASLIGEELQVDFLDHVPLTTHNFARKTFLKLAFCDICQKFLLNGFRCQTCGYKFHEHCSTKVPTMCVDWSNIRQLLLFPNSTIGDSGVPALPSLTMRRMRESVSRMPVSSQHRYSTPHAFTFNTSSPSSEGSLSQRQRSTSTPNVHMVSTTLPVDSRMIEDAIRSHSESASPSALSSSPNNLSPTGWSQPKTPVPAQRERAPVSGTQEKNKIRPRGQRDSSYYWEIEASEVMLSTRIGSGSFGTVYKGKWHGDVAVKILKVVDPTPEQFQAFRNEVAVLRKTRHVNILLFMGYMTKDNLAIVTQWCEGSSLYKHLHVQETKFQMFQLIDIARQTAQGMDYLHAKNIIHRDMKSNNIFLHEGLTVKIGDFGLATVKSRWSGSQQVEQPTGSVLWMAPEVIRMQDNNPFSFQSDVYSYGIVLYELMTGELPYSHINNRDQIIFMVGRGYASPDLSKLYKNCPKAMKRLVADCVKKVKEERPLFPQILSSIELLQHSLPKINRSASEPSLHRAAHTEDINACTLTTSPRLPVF
ASSAY COMMENT: Inhibition of CRAF in human Calu6 cells assessed as reduction MEK phosphorylation measured after 1 hr by sandwich ELISA
READOUT: pEC50
pEC50 here is simply -log10 of the concentration when that concentration is written in mol/L.

Check out these entries, answers already filled in.
STRUCTURE NOTATION | VAL
Cc1ccc(NC(=O)c2cccc(C(F)(F)F)c2)cc1-c1cc(N2CCOCC2)nc(NCCO)n1 | 7.21
Cc1ccc(NC(=O)c2ccnc(C(C)(C)C#N)c2)cc1-c1cc(N2CCOCC2)c(=O)n(C)n1 | 7.28

Read the next record carefully.
# input Fill in: pEC50 on RAF proto-oncogene serine/threonine-protein kinase (Homo sapiens, UniProt P04049), entry "Cc1ccc(NC(=O)c2ccnc(C(F)(F)F)c2)cc1-c1cc(NCCO)nc(N2CCOCC2)c1"
# output 8.10
